// data source = the NIST ThermoML archive (doi:10.1016/j.jct.2010.05.011)

assay comment: refractive index (Na D-line) (dimensionless)
measurement conditions: 338.15 K; 101.33 kPa; Liquid; Standard Abbe refractometry
The entries below come with measured refractive index values attached.

>  <compound>
CCOS(=O)(=O)[O-].CCc1cccc[n+]1CC [1,2-diethylpyridinium ethylsulfate]

>  <refractive index>
1.50239

$$$$
>  <compound>
CCc1cccc[n+]1C.COS(=O)(=O)[O-] [2-ethyl-1-methylpyridinium methyl sulfate]

>  <refractive index>
1.50852

$$$$
>  <compound>
COS(=O)(=O)[O-].Cc1ccc[n+](C)c1 [1,3-dimethylpyridinium methyl sulfate]

>  <refractive index>
1.50193

$$$$
>  <compound>
COS(=O)(=O)[O-].C[n+]1ccccc1 [1-methylpyridinium methylsulfate]

>  <refractive index>
1.50226

$$$$
